These entries and their values trace back to ChEMBL document CHEMBL2218924.

Hi there, I'd appreciate the recorded residual activity for every entry that follows.
assayedSystem: Mitogen-activated protein kinase 12 (Homo sapiens)
conditionDescription: at 1 µM
Numbers only, in %.

Consider the reported residual activity for these molecules:
O=[N+]([O-])c1ccc(-c2nc(-c3ccc(F)cc3)c(-c3ccncc3)[nH]2)cc1 : 101
CCN(CC)CCCCN1c2ccccc2Oc2ccc(Cl)cc21 : 131
Oc1ccc(Nc2nc(-c3ccc(Cl)cc3)cs2)cc1 : 112
NCCNc1ncc(C(N)=O)c(Nc2cccc(C(F)(F)F)c2)n1 : 103
COc1ccc(OC)c2c(=S)c3ccccc3[nH]c12 : 95
COc1cc2ncnc(Nc3ccc(OCc4ccccc4)cc3)c2cc1OC : 111

// input: 3 molecules below; output: residual activity for each
1. O=C1Nc2ccc3ncsc3c2/C1=C/c1c[nH]cn1
2. NC(=O)Nc1sc(-c2ccc(F)cc2)cc1C(N)=O
3. Oc1ccc(-c2nc(-c3ccc(F)cc3)c(-c3ccncc3)[nH]2)cc1

Result:
50
90
112

// input: 5 molecules below; output: residual activity for each
1. COc1cc2c(cc1OC)-c1n[nH]c(Nc3cccc(F)c3)c1C2
2. Oc1n[nH]c2nnc(-c3c(-c4ccccc4)nn4ccccc34)cc12
3. O=C1NC(=O)C(c2c[nH]c3ccccc23)=C1c1c[nH]c2ccccc12
4. Cc1nc2cc3nc(-c4cccs4)cnc3cc2n1C
5. N#C/C(=C(\N)Sc1ccc(N)cc1)c1ccccc1C(F)(F)F

Result:
1: 100; 2: 96; 3: 99; 4: 114; 5: 104

Query: For the molecule shown here, CN(C)c1ccc(/C=C2\C(=O)Nc3ccccc32)cc1 , give the reported residual activity.
Result: 113
